Reported viability at 10 µM is given for each of the following compounds.
- System: AsPC-1
- PROTOCOL_SUMMARY: Cell viability analysis (WST-1), AsPC-1
- Assay type: cell-based
- EXPERIMENTAL_PARAMETERS: Homo sapiens, ASPC1, 72 h, Table 4, repeated experiments, drug 10 μM, read-out: survival rate (viability) of cancer cells, AsPC-1
Counter-ions that a name gives are not always drawn.
// note: answer is a bare numeric in %

COMPOUND	viability at 10 µM / %
CCC(C)(C)C(=O)O[C@H]1C[C@@H](C)C=C2C=C[C@H](C)[C@H](CC[C@@H]3C[C@@H](O)CC(=O)O3)[C@H]21 [Simvastatin (Zocor), Simvastatin]	78.2
COC(=O)C1=C(C)NC(C)=C(C(=O)OCC(C)C)C1c1ccccc1[N+](=O)[O-] (stereo not drawn) [Nisoldipine (Sular), Nisoldipine]	78.8

Look up viability at 10 µM for this compound: COc1cc2nc(N3CCN(C(=O)c4ccco4)CC3)nc(N)c2cc1OC [Prazosin HCl]
80.4

----------
- Tested on: AGS (Gastric Adenocarcinoma)
- PROTOCOL_SUMMARY: Cell viability analysis (WST-1), AGS
- Format: cell-based
- EXPERIMENTAL_PARAMETERS: 72 h, Table 3, drug 10 μM, WST-1, OD450 nm, read-out: survival rate (viability) of cancer cells, AGS
Counter-ions that a name gives are not always drawn.
Lab note: compare viability at 10 µM with 80%, writing 1 (yes) if less and 0 (no) if equal or more.

Example entries begin here.
MOLECULE	CLASS_LABEL
Clc1ccccc1CN1CCc2sccc2C1 [Ticlopidine HCl]	1 (yes)
CCC(C)(C)C(=O)O[C@H]1C[C@@H](C)C=C2C=C[C@H](C)[C@H](CC[C@@H]3C[C@@H](O)CC(=O)O3)[C@H]21 [Simvastatin (Zocor), Simvastatin]	0 (no)
CCC(NC(C)C)C(O)c1ccc(O)c(O)c1 (centres unmarked) [Isoetharine Mesylate]	0 (no)
CCOC(=O)[C@H](CCc1ccccc1)N[C@@H](C)C(=O)N1[C@H](C(=O)O)C[C@@H]2CCC[C@@H]21 [Ramipril (Altace), Ramipril]	0 (no)

In plain terms, does CC(C)NC[C@H](O)COc1ccc(CCOCC2CC2)cc1 [Levobetaxolol HCl] come in under 80% for viability at 10 µM?
1 (yes)

// same read-out, input: C#CCN[C@@H]1CCc2ccccc21 [Rasagiline mesylate]
1 (yes)

Same again, this time with O=C(O)/C=C/c1ccc(Cn2ccnc2)cc1 [Ozagrel]
0 (no)

Can you handle NC(=O)c1ncn([C@@H]2O[C@H](CO)[C@@H](O)[C@H]2O)c1N [Acadesine] next?
1 (yes)

Same thing, different molecule: CO[C@@H]1[C@@H](OC(N)=O)[C@@H](O)[C@H](Oc2ccc3c(O)c(NC(=O)c4ccc(O)c(CC=C(C)C)c4)c(=O)oc3c2C)OC1(C)C [Novobiocin sodium (Albamycin), Novobiocin sodium]
0 (no)

----------
List of viability at 10 µM values.
- System: AGS (Gastric Adenocarcinoma)
- PROTOCOL_SUMMARY: Cell viability analysis (WST-1), AGS
- Type: cell-based
- EXPERIMENTAL_PARAMETERS: 72 h, Table 3, drug 10 μM, WST-1, OD450 nm, read-out: survival rate (viability) of cancer cells, AGS

COMPOUND	TEST_SYSTEM	RESULT
NS(=O)(=O)c1cc2c(cc1Cl)NC(C(Cl)Cl)NS2(=O)=O (centres unmarked) [Trichlormethiazide (Achletin), Trichlormethiazide]	AGS (Gastric Adenocarcinoma)	79.3%
COCCCOc1cc(C[C@@H](C[C@H](N)[C@@H](O)C[C@H](C(=O)NCC(C)(C)C(N)=O)C(C)C)C(C)C)ccc1OC [Aliskiren hemifumarate]	AGS (Gastric Adenocarcinoma)	81.8%
CCCNCC(O)COc1ccccc1C(=O)CCc1ccccc1 (centres unmarked) [Propafenone (Rytmonorm), Propafenone]	AGS (Gastric Adenocarcinoma)	79.8%
CC(C)NCC(O)COc1ccc(COCCOC(C)C)cc1 (centres unmarked) [Bisoprolol]	AGS (Gastric Adenocarcinoma)	80.3%

Switching to the query record.
Test system AGS (Gastric Adenocarcinoma); read-out viability at 10 µM; what value for O=C(O)c1cc(=O)c2ccccc2o1 [Chromocarb] ?
81.8%
